# protocol description: Inhibition of nuclear export in human HeLa cells
# Type: functional, cell-based
measurement type: EC50 (µM)

compound="CC(C)CCNC/C=C/[S+]([O-])c1cc(C(F)(F)F)cc(C(F)(F)F)c1 (stereo unspecified)" uom=µM value=3.2
